Test system: Pseudomonas aeruginosa FADDI-PA01
Assay type: cell-based
ASSAY CONDITIONS: FADDI-
Where a SMILES comes first, the peptide text is derived from it. Bridges are numbered along the chain shown (N, C = ends). [ ]: non-standard residue; d: D form. The star is where a group is joined. X57 = O=C(c1nc2cc(Cl)ccc2[nH]1)*; X9 = O=C(c1ccnc(C(F)(F)F)c1)*; X34 = O=C(c1cc(Br)c(Br)o1)*; X38 = O=C(c1cc2sccc2[nH]1)*; X17 = O=C(c1ncc(Br)cc1Cl)*; X12 = CCc1ccc(C(=O)*)nc1; Dab = NCC[C@H](N)C(=O)O; Abu = CC[C@H](N)C(=O)O; Dap = NC[C@H](N)C(=O)O
Quick reference: Minimum inhibitory concentration of the listed items.
MEASURE NAME: Minimum inhibitory concentration (µg/mL)

[[record]]
molecule = "CCc1ccc(C(=O)N[C@@H](CCN)C(=O)N[C@H](C(=O)N[C@@H](CN)C(=O)N[C@H]2CCNC(=O)[C@H]([C@@H](C)O)NC(=O)[C@H](CCN)NC(=O)[C@H](CCN)NC(=O)[C@H](CC)NC(=O)[C@@H](CC(C)C)NC(=O)[C@H](CCN)NC2=O)[C@@H](C)O)nc1 [Compound 42] (X12-[Dab]T[Dap][Dab][Dab][dL][Abu][Dab][Dab]T; lactam 4-C)"
measure_name = "Minimum inhibitory concentration"
value_comparator = "<"
val = 0.125

[[record]]
molecule = "CC[C@@H]1NC(=O)[C@@H](CC(C)C)NC(=O)[C@H](CCN)NC(=O)[C@@H](NC(=O)[C@H](CN)NC(=O)[C@@H](NC(=O)[C@H](CCN)NC(=O)c2cc(Br)c(Br)o2)[C@@H](C)O)CCNC(=O)[C@H]([C@@H](C)O)NC(=O)[C@H](CCN)NC(=O)[C@H](CCN)NC1=O [Compound 79] (X34-[Dab]T[Dap][Dab][Dab][dL][Abu][Dab][Dab]T; lactam 4-C)"
measure_name = "Minimum inhibitory concentration"
value_comparator = "="
val = 1

[[record]]
molecule = "CC(C)C[C@H]1NC(=O)[C@H](CCN)NC(=O)[C@@H](NC(=O)[C@H](CN)NC(=O)[C@@H](NC(=O)[C@H](CCN)NC(=O)c2ccnc(C(F)(F)F)c2)[C@@H](C)O)CCNC(=O)[C@H]([C@@H](C)O)NC(=O)[C@H](CCN)NC(=O)[C@H](CCN)NC(=O)[C@H]([C@@H](C)O)NC1=O [Compound 32] (X9-[Dab]T[Dap][Dab][Dab][dL]T[Dab][Dab]T; lactam 4-C; N-terminus assumed)"
measure_name = "Minimum inhibitory concentration"
value_comparator = "="
val = 1

[[record]]
molecule = "CC[C@@H]1NC(=O)[C@@H](CC(C)C)NC(=O)[C@H](CCN)NC(=O)[C@@H](NC(=O)[C@H](CN)NC(=O)[C@@H](NC(=O)[C@H](CCN)NC(=O)c2nc3cc(Cl)ccc3[nH]2)[C@@H](C)O)CCNC(=O)[C@H]([C@@H](C)O)NC(=O)[C@H](CCN)NC(=O)[C@H](CCN)NC1=O [Compound 71] (X57-[Dab]T[Dap][Dab][Dab][dL][Abu][Dab][Dab]T; lactam 4-C)"
measure_name = "Minimum inhibitory concentration"
value_comparator = "="
val = 0.25

[[record]]
molecule = "CC[C@@H]1NC(=O)[C@@H](CC(C)C)NC(=O)[C@H](CCN)NC(=O)[C@@H](NC(=O)[C@H](CN)NC(=O)[C@@H](NC(=O)[C@H](CCN)NC(=O)c2cc3sccc3[nH]2)[C@@H](C)O)CCNC(=O)[C@H]([C@@H](C)O)NC(=O)[C@H](CCN)NC(=O)[C@H](CCN)NC1=O [Compound 90] (X38-[Dab]T[Dap][Dab][Dab][dL][Abu][Dab][Dab]T; lactam 4-C)"
measure_name = "Minimum inhibitory concentration"
value_comparator = "="
val = 0.25

[[record]]
molecule = "CC[C@@H]1NC(=O)[C@@H](CC(C)C)NC(=O)[C@H](CCN)NC(=O)[C@@H](NC(=O)[C@H](CN)NC(=O)[C@@H](NC(=O)[C@H](CCN)NC(=O)c2ncc(Br)cc2Cl)[C@@H](C)O)CCNC(=O)[C@H]([C@@H](C)O)NC(=O)[C@H](CCN)NC(=O)[C@H](CCN)NC1=O [Compound 33] (X17-[Dab]T[Dap][Dab][Dab][dL][Abu][Dab][Dab]T; lactam 4-C)"
measure_name = "Minimum inhibitory concentration"
value_comparator = "="
val = 0.25

